All figures here come from patent US20200347153A1.

- experimental_protocol: Stability studies (shelf life, visible changes)
- Type: physicochemical
- recorded_conditions: 25° C.; Week 7; visible changes
measured_endpoint: Stability of Actives at 25° C.

NC(=O)c1cccnc1 [Niacinamide]    0
CCOC(=O)c1ccc(N)cc1    0
CC(O)COC[C@H]1O[C@@H]2O[C@H]3[C@H](O)[C@@H](O)[C@@H](O[C@H]4[C@H](O)[C@@H](O)[C@@H](O[C@H]5[C@H](O)[C@@H](O)[C@@H](O[C@H]6[C@H](O)[C@@H](O)[C@@H](O[C@H]7[C@H](O)[C@@H](O)[C@@H](O[C@H]8[C@H](O)[C@@H](O)[C@@H](O[C@H]1[C@H](O)[C@H]2O)O[C@@H]8COCC(C)O)O[C@@H]7COCC(C)O)O[C@@H]6COCC(C)O)O[C@@H]5COCC(C)O)O[C@@H]4COCC(C)O)O[C@@H]3COCC(C)O (stereo partly drawn) [HPBCD, Hydroxypropyl β-cyclodextrin]    0
Nc1cc(N2CCCCC2)nc(N)[n+]1[O-]    0

###

- experimental_protocol: Stability studies (shelf life, visible changes)
- Assay type: physicochemical
- recorded_conditions: 25° C.; Week 2; visible changes
- Description: The effects of HPBCD on the shelf life stability of each active agent is studied at pre-determined temperatures for 11 weeks. Real time stability is observed at −17° C., 5° C. and 25° C., and accelerated stability is observed at 40° C. For accelerated stability, one day at 40° C. is equivalent to one week, thus the data represents 77 weeks. […] The vials are then placed in a temperature-controlled oven or refrigerator/freezer. The compounds are checked daily and any visible changes are noted.
measured_endpoint: Stability of Actives at 25° C.

C=C(C)[C@@H]1CCC(C)=C[C@H]1c1c(O)cc(CCCCC)cc1O [CBD, Cannabidiol]    0
CC(O)COC[C@H]1O[C@@H]2O[C@H]3[C@H](O)[C@@H](O)[C@@H](O[C@H]4[C@H](O)[C@@H](O)[C@@H](O[C@H]5[C@H](O)[C@@H](O)[C@@H](O[C@H]6[C@H](O)[C@@H](O)[C@@H](O[C@H]7[C@H](O)[C@@H](O)[C@@H](O[C@H]8[C@H](O)[C@@H](O)[C@@H](O[C@H]1[C@H](O)[C@H]2O)O[C@@H]8COCC(C)O)O[C@@H]7COCC(C)O)O[C@@H]6COCC(C)O)O[C@@H]5COCC(C)O)O[C@@H]4COCC(C)O)O[C@@H]3COCC(C)O (stereo partly drawn) [HPBCD, Hydroxypropyl β-cyclodextrin]    0
Nc1cc(N2CCCCC2)nc(N)[n+]1[O-] [Minoxidil]    0
CCOC(=O)c1ccc(N)cc1 [Benzocaine]    0
NC(=O)c1cccnc1 [Niacinamide]    0

###

- experimental_protocol: Stability studies (shelf life, visible changes)
- Assay type: physicochemical
- recorded_conditions: 25° C.; Week 1; visible changes
- Protocol: The effects of HPBCD on the shelf life stability of each active agent is studied at pre-determined temperatures for 11 weeks. Real time stability is observed at −17° C., 5° C. and 25° C., and accelerated stability is observed at 40° C. For accelerated stability, one day at 40° C. is equivalent to one week, thus the data represents 77 weeks. […] The vials are then placed in a temperature-controlled oven or refrigerator/freezer. The compounds are checked daily and any visible changes are noted.
measured_endpoint: Stability of Actives at 25° C.

Nc1cc(N2CCCCC2)nc(N)[n+]1[O-]    0
CC(O)COC[C@H]1O[C@@H]2O[C@H]3[C@H](O)[C@@H](O)[C@@H](O[C@H]4[C@H](O)[C@@H](O)[C@@H](O[C@H]5[C@H](O)[C@@H](O)[C@@H](O[C@H]6[C@H](O)[C@@H](O)[C@@H](O[C@H]7[C@H](O)[C@@H](O)[C@@H](O[C@H]8[C@H](O)[C@@H](O)[C@@H](O[C@H]1[C@H](O)[C@H]2O)O[C@@H]8COCC(C)O)O[C@@H]7COCC(C)O)O[C@@H]6COCC(C)O)O[C@@H]5COCC(C)O)O[C@@H]4COCC(C)O)O[C@@H]3COCC(C)O (stereo partly drawn) [HPBCD, Hydroxypropyl β-cyclodextrin]    0
CCOC(=O)c1ccc(N)cc1    0
C=C(C)[C@@H]1CCC(C)=C[C@H]1c1c(O)cc(CCCCC)cc1O    0
NC(=O)c1cccnc1 [Niacinamide]    0
